- measured.target: class C enzyme AmpC (Enterobacter cloacae, UniProt P05364)
- Sequence (P05364 21-381): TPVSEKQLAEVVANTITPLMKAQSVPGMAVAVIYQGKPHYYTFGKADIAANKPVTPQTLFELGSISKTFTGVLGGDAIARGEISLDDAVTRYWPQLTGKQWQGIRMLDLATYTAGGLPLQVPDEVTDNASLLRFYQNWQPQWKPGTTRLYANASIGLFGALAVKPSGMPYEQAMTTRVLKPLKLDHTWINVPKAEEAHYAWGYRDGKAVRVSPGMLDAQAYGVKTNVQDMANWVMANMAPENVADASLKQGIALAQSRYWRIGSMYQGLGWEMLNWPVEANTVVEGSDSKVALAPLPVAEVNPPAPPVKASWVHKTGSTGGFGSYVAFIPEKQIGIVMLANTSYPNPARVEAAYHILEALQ
- test.description: β-Lactamase inhibition IC50 (nitrocefin, spectrophotometric)
- Format: biochemical
- condition.notes: enzyme 2.1 nM, 10 min preincubation at 25° C., nitrocefin; read-out: IC50 Class C AmpC
metric.name: IC50 (nM)

> print(dat)
                                   compound  readout.number
1  O=C([O-])C1=CS[C@@H]2/C(=C\c3cn4c(n3)CCC4)C(=O)N12.[Na+] [Compound 1, Sodium Salt]             4.8

====

- measured.target: class A β-lactamase Imi-1 (Enterobacter cloacae, UniProt Q46991)
- Sequence (Q46991 entry or part of it): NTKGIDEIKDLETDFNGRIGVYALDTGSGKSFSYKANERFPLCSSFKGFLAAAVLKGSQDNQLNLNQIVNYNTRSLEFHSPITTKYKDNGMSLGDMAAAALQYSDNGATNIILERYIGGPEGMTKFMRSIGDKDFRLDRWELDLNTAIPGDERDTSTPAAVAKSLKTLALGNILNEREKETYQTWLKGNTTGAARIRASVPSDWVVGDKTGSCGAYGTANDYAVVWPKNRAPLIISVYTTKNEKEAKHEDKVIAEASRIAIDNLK
- test.description: β-Lactamase inhibition IC50 (nitrocefin, spectrophotometric)
- Type: biochemical
pIC50: −log10 of the molar value. Where a name gives a salt, the structure may show the parent alone.
metric.name: pIC50

> print(dat)
                                   compound  metric.name  readout.number
1  O=C(O)C1=CS[C@@H]2/C(=C\c3cn4c(n3)COCC4)C(=O)N12 [Compound 2, Sodium Salt]        pIC50            7.70

====

- measured.target: class C enzyme AmpC (Enterobacter cloacae, UniProt P05364)
- test.description: β-Lactamase inhibition IC50 (nitrocefin, spectrophotometric)
- Format: biochemical
pIC50: −log10 of the molar value. Counter-ions that a name gives are not always drawn.
metric.name: pIC50

> print(dat)
                                   compound  metric.name  readout.number
1  O=C(O)C1=CS[C@@H]2/C(=C\c3cn4c(n3)COCC4)C(=O)N12 [Compound 2, Sodium Salt]        pIC50            8.66
